Exercise: state measured pIC50 for each of the compounds provided.
target: hERG channel (Homo sapiens, UniProt Q12809); assay: hERG electrophysiology, automated whole-cell patch clamp (Patchliner) in CHO-K1 cells stably expressing hERG; conditions: 30 nM-100 μM
Sequence (Q12809 whole entry): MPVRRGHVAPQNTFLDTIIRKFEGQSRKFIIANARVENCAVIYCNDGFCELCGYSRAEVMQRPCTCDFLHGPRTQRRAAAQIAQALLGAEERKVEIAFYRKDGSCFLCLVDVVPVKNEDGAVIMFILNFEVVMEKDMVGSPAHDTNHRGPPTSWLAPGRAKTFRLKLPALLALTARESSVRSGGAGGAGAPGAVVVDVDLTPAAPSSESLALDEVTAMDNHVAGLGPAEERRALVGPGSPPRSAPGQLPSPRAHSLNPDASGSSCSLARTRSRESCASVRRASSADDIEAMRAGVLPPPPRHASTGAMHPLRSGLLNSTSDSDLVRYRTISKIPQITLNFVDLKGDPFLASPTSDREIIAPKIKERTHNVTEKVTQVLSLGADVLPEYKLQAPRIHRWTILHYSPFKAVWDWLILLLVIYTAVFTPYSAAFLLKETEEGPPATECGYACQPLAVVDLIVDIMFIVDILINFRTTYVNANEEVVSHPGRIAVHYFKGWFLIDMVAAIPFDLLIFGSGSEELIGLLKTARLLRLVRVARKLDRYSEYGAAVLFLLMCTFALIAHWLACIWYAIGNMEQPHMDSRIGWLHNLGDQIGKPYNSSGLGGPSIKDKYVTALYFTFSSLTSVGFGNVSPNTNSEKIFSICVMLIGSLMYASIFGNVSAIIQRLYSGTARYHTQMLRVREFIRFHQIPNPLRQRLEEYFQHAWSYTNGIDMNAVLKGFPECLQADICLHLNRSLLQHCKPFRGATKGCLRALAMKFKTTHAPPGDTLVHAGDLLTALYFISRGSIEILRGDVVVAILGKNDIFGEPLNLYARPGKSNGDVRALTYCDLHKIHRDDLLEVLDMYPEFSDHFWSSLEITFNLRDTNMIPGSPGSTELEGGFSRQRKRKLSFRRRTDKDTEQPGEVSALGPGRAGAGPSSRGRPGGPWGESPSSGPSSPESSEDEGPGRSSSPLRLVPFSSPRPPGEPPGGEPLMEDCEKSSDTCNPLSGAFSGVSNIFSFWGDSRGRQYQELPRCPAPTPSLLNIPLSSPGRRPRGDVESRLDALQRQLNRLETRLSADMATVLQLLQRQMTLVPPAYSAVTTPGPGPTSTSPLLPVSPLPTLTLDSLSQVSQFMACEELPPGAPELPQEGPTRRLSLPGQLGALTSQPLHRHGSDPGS
pIC50: −log10 of the molar value.

O=C(CO)N1CC[C@]2(C1)C(=O)Nc1c2cc(Cl)c(Cl)c1F [Compound 128]
< 4.00

Batch request: pIC50 per item, same order as input.
1. O=C([C@H]1CCNC1)N1CC[C@]2(C1)C(=O)Nc1cc(Cl)c(Cl)cc12 [Compound 15]
2. O=C(C1CCNCC1)N1CC[C@]2(C1)C(=O)Nc1cc(Cl)c(Cl)cc12 [Compound 21]
3. COC[C@H]1C[C@H](C(=O)N2CC[C@]3(C2)C(=O)Nc2cc(Cl)c(Cl)cc23)CN1 [Compound 112]
4. O=C(N1CC[C@]2(C1)C(=O)Nc1cc(Cl)c(Cl)cc12)[C@]1(F)CCCNC1 [Compound 49]

["< 4.00", "< 4.00", "< 4.00", "< 5.52"]

Batch request: pIC50 per item, same order as input.
1. NCCC(=O)N1CC[C@]2(C1)C(=O)Nc1cc(Cl)c(Cl)cc12 [Compound 9]
2. O=C([C@@H]1CCNC1)N1CC[C@]2(C1)C(=O)Nc1cc(Cl)c(Cl)cc12 [Compound 14]
3. O=C1Nc2cc(Cl)c(Cl)cc2[C@]12CCN(C(=O)[C@H]1CC[C@H](O)CC1)C2 [Compound 52]

< 4.00
< 4.00
< 4.52

Batch request: pIC50 per item, same order as input.
1. O=C(CO)N1CC[C@]2(C1)C(=O)Nc1cc(Cl)c(Cl)cc12 [Compound 6]
2. Nc1cc(C(=O)N2CC[C@]3(C2)C(=O)Nc2cc(Cl)c(Cl)cc23)ccn1 [Compound 42]
3. O=C([C@@H]1CN[C@@H](CO)C1)N1CC[C@]2(C1)C(=O)Nc1cc(Cl)c(Cl)cc12 [Compound 115]
4. O=C([C@@H]1CCCNC1)N1CC[C@]2(C1)C(=O)Nc1cc(Cl)c(Cl)cc12 [Compound 17]
5. O=C([C@@H]1C[C@@H](O)[C@@H](O)C1)N1CC[C@]2(C1)C(=O)Nc1cc(Cl)c(Cl)cc12 [Compound 101]

1: < 4.00; 2: < 5.00; 3: < 4.00; 4: < 4.00; 5: < 4.00

Batch request: pIC50 per item, same order as input.
1. NCC(=O)N1CC[C@]2(C1)C(=O)Nc1cc(Cl)c(Cl)cc12 [Compound 5]
2. O=C([C@@H]1CCN(CCO)C1)N1CC[C@]2(C1)C(=O)Nc1cc(Cl)c(Cl)cc12 (single isomer, unassigned; isomer 2) [Compound 38]
3. C[C@@H](O)C(=O)N1CC[C@]2(C1)C(=O)Nc1cc(Cl)c(Cl)cc12 [Compound 13]

["< 4.52", "< 4.00", "< 4.00"]

All values here come from patent US20240391926A1.
